test system: Rattus norvegicus; experiment: Hypolipidemic activity in COBBS-CD rat assessed as reduction in serum sterol level at 0.01% administered with chow diet after 5 days relative to control; format: functional; set-up: scale not given: the % may be the effect or the level left
READOUT_NAME: Activity

[[record]]
compound = "COC(=O)C(Oc1ccc(Cl)c2ccccc12)c1ccc(Oc2ccc(Cl)cc2)cc1 (stereo unspecified)"
assay_value = "-18%"

[[record]]
compound = "COC(=O)C(Oc1ccc(Cl)cc1)c1ccc(Sc2ccccc2)cc1 (stereo unspecified)"
assay_value = "6%"

[[record]]
compound = "O=C(O)C(Oc1ccc(Cl)cc1)c1ccc(Oc2ccc(Cl)cc2)cc1 (stereo unspecified)"
assay_value = "12%"

[[record]]
compound = "O=C(OCC(O)CO)C(Oc1ccc(Cl)cc1)c1ccc(Oc2ccc(Cl)cc2)cc1 (stereo unspecified)"
assay_value = "13%"

[[record]]
compound = "COC(=O)C(Oc1ccc(Cl)cc1)(C(=O)OC)c1ccc(Oc2ccc(Cl)cc2)cc1"
assay_value = "9%"

[[record]]
compound = "COC(=O)C(Oc1ccc(OCc2ccccc2)cc1)c1ccc(Oc2ccc(Cl)cc2)cc1 (stereo unspecified)"
assay_value = "13%"


* * *

system: Rattus norvegicus; assay: Hypolipidemic activity in COBBS-CD rat assessed as reduction in serum sterol level at 0.01% administered with chow diet after 5 days relative to control; format: functional; design: scale not given: the % may be the effect or the level left
READOUT_NAME: Activity (%)

[[record]]
molecule = "COC(=O)C(Oc1ccc(C(C)(C)C)cc1Cl)c1ccc(Oc2ccc(Cl)cc2)cc1 (stereo not given)"
readout_name = "Activity"
assay_value = 17

[[record]]
molecule = "COC(=O)C(Oc1cc(C)c(Cl)c(C)c1)c1ccc(Oc2ccc(Cl)cc2)cc1 (stereo not given)"
readout_name = "Activity"
assay_value = 0

[[record]]
molecule = "COC(=O)C(Oc1ccc(F)cc1)c1ccc(Sc2ccc(Cl)cc2)cc1 (stereo not given)"
readout_name = "Activity"
assay_value = 21

[[record]]
molecule = "COC(=O)C(Oc1ccc(Cl)cc1)c1ccc([S+]([O-])c2ccc(Cl)cc2)cc1 (stereo not given)"
readout_name = "Activity"
assay_value = 15

[[record]]
molecule = "COC(=O)C(Oc1ccc(Cl)cc1)c1ccc(Oc2ccc(Cl)c3ccccc23)cc1 (stereo not given)"
readout_name = "Activity"
assay_value = 6

[[record]]
molecule = "COC(=O)C(Oc1cccc(-c2ccccc2)c1)c1ccc(Oc2ccc(Cl)cc2)cc1 (stereo not given)"
readout_name = "Activity"
assay_value = 8

[[record]]
molecule = "COC(=O)C(Oc1ccc(C(F)(F)F)cc1)c1ccc(Oc2ccc(Cl)cc2)cc1 (stereo not given)"
readout_name = "Activity"
assay_value = 24

[[record]]
molecule = "COC(=O)C(Oc1cccc(Cl)c1)c1ccc(Oc2ccc(Cl)cc2)cc1 (stereo not given)"
readout_name = "Activity"
assay_value = -3

[[record]]
molecule = "COC(=O)C(Oc1ccc(Cl)cc1)c1ccc(Oc2ccccc2)cc1 (stereo not given)"
readout_name = "Activity"
assay_value = 19

[[record]]
molecule = "COC(=O)C(Oc1cccc(C(C)(C)C)c1)c1ccc(Oc2ccc(Cl)cc2)cc1 (stereo not given)"
readout_name = "Activity"
assay_value = 23


* * *

tested on: Rattus norvegicus; assay: Hypolipidemic activity in COBBS-CD rat assessed as reduction in serum sterol level at 0.01% administered with chow diet after 5 days relative to control; format: functional; design: scale not given: the % may be the effect or the level left
Response field label takes True when Activity is strictly below 20% and False in all other cases.

[[record]]
compound = "O=C(O)C(Oc1cccc(C(F)(F)F)c1)c1ccc(Cl)cc1 (stereo not given)"
study_target = "Rattus norvegicus"
class_label = "False"

[[record]]
compound = "COC(=O)C(Oc1ccc(Cl)cc1)c1ccc(Oc2ccc(Cl)cc2)cc1 (stereo not given)"
study_target = "Rattus norvegicus"
class_label = "True"

[[record]]
compound = "COC(=O)C(Oc1ccc(NC(C)=O)cc1)c1ccc(Oc2ccc(Cl)cc2)cc1 (stereo not given)"
study_target = "Rattus norvegicus"
class_label = "True"

[[record]]
compound = "CCOP(=O)(OCC)C(Oc1ccc(Cl)cc1)(C(=O)OC)c1ccc(Oc2ccc(Cl)cc2)cc1 (stereo not given)"
study_target = "Rattus norvegicus"
class_label = "False"

[[record]]
compound = "COC(=O)C(Oc1ccc2ccc(=O)oc2c1)c1ccc(Oc2ccc(Cl)cc2)cc1 (stereo not given)"
study_target = "Rattus norvegicus"
class_label = "True"

[[record]]
compound = "COC(=O)C(Oc1ccc2c(c1)CCCC2)c1ccc(Oc2ccc(Cl)cc2)cc1 (stereo not given)"
study_target = "Rattus norvegicus"
class_label = "False"

[[record]]
compound = "COC(=O)C(Oc1ccc(C(C)(C)C)cc1)c1ccc(Sc2ccc(Cl)cc2)cc1 (stereo not given)"
study_target = "Rattus norvegicus"
class_label = "True"

[[record]]
compound = "COC(=O)C(Oc1ccc(C(C)(C)C)cc1)c1ccc(Oc2ccc(NC(C)=O)cc2)cc1 (stereo not given)"
study_target = "Rattus norvegicus"
class_label = "True"

[[record]]
compound = "COC(=O)C(Oc1ccc(C2CCCCC2)cc1)c1ccc(Sc2ccc(Cl)cc2)cc1 (stereo not given)"
study_target = "Rattus norvegicus"
class_label = "True"

[[record]]
compound = "COC(=O)C(Oc1ccc(Cl)cc1)c1ccc(Oc2ccc(S(C)(=O)=O)cc2)cc1 (stereo not given)"
study_target = "Rattus norvegicus"
class_label = "True"

[[record]]
compound = "O=C(O)C(Oc1ccc(F)cc1)c1ccc(Oc2ccc(Cl)cc2)cc1 (stereo not given)"
study_target = "Rattus norvegicus"
class_label = "False"

[[record]]
compound = "O=C(O)C(Oc1ccc(Oc2ccccc2)cc1)c1ccc(Oc2ccc(Cl)cc2)cc1 (stereo not given)"
study_target = "Rattus norvegicus"
class_label = "True"

[[record]]
compound = "O=C(O)C(Oc1ccccc1)c1ccc(Oc2ccccc2)cc1 (stereo not given)"
study_target = "Rattus norvegicus"
class_label = "False"

[[record]]
compound = "COC(=O)C(Oc1ccc(C(C)(C)C)cc1)c1ccc(Oc2ccc(C#N)cc2)cc1 (stereo not given)"
study_target = "Rattus norvegicus"
class_label = "True"

[[record]]
compound = "COC(=O)C(Oc1ccc(Cl)c2cccnc12)c1ccc(Oc2ccc(Cl)cc2)cc1 (stereo not given)"
study_target = "Rattus norvegicus"
class_label = "True"

[[record]]
compound = "COC(=O)C(Oc1ccc(Cl)c2c1CCCC2)c1ccc(Oc2ccc(Cl)cc2)cc1 (stereo not given)"
study_target = "Rattus norvegicus"
class_label = "True"

[[record]]
compound = "COC(=O)C(Oc1ccc(Cl)cc1)c1ccc(Oc2cccc(C(F)(F)F)c2)cc1 (stereo not given)"
study_target = "Rattus norvegicus"
class_label = "True"

[[record]]
compound = "COC(=O)C(C)(Oc1ccc(Cl)cc1)c1ccc(Oc2ccc(Cl)cc2)cc1 (stereo not given)"
study_target = "Rattus norvegicus"
class_label = "True"

[[record]]
compound = "COC(=O)C(Oc1ccc(F)cc1)c1ccc(Oc2ccc(C#N)cc2)cc1 (stereo not given)"
study_target = "Rattus norvegicus"
class_label = "True"


* * *

tested on: Rattus norvegicus; assay: Hypolipidemic activity in COBBS-CD rat assessed as reduction in serum sterol level at 0.01% administered with chow diet after 5 days relative to control; type: functional; design: scale not given: the % may be the effect or the level left
READOUT_NAME: Activity (%)

[[record]]
compound = "COC(=O)C(Oc1ccc(C)c(C)c1)c1ccc(Oc2ccc(Cl)cc2)cc1 (stereo not given)"
assay_value = 18

[[record]]
compound = "COC(=O)C(Oc1ccc(Cl)c(Cl)c1)c1ccc(Oc2ccc(Cl)cc2)cc1 (stereo not given)"
assay_value = 5

[[record]]
compound = "COC(=O)C(Oc1cccc2c1CCCC2)c1ccc(Oc2ccc(Cl)cc2)cc1 (stereo not given)"
assay_value = 1

[[record]]
compound = "COC(=O)C(Oc1ccc(Cl)c(C)c1)c1ccc(Oc2ccc(Cl)cc2)cc1 (stereo not given)"
assay_value = 34

[[record]]
compound = "COC(=O)C(Oc1ccc2ccccc2c1)c1ccc(Oc2ccc(Cl)cc2)cc1 (stereo not given)"
assay_value = 10

[[record]]
compound = "CCOC(=O)C(Oc1ccc(Cl)cc1)c1ccc(Oc2ccc(Cl)cc2)cc1 (stereo not given)"
assay_value = 18

[[record]]
compound = "COC(=O)C(Oc1cccc(C(C)(C)C)c1)c1ccc(Oc2ccc(C(C)(C)C)cc2)cc1 (stereo not given)"
assay_value = -5

[[record]]
compound = "COC(=O)C(Oc1ccc(C2CCCCC2)cc1)c1ccc(Oc2ccc(C(C)(C)C)cc2)cc1 (stereo not given)"
assay_value = -5

[[record]]
compound = "COC(=O)C(Oc1ccc(C(C)(C)C)cc1)c1ccc(Oc2cccc(C(F)(F)F)c2)cc1 (stereo not given)"
assay_value = 12

[[record]]
compound = "COC(=O)C(Oc1cc(Cl)c(Cl)c(Cl)c1)c1ccc(Oc2ccc(Cl)cc2)cc1 (stereo not given)"
assay_value = 3


* * *

system: Rattus norvegicus; assay: Hypolipidemic activity in COBBS-CD rat assessed as reduction in serum sterol level at 0.01% administered with chow diet after 5 days relative to control; format: functional; design: scale not given: the % may be the effect or the level left
READOUT_NAME: Activity

[[record]]
compound = "COC(=O)C(Oc1ccc(Cl)cc1)c1ccc(Sc2ccc(Cl)cc2)cc1 (stereo not given)"
assay_value = "17%"

[[record]]
compound = "COC(=O)C(Oc1ccc(C(C)(C)C)cc1)c1ccc(Oc2ccc([N+](=O)[O-])cc2)cc1 (stereo not given)"
assay_value = "-3%"

[[record]]
compound = "COC(=O)C(Oc1ccc2c(c1)CCC2)c1ccc(Oc2ccc(Cl)cc2)cc1 (stereo not given)"
assay_value = "26%"

[[record]]
compound = "COC(=O)C(Oc1ccc(C(C)(C)C)cc1)c1ccc(Oc2ccc(Cl)c3ccccc23)cc1 (stereo not given)"
assay_value = "16%"

[[record]]
compound = "COC(=O)C(Oc1cccc2c1CCC2)c1ccc(Oc2ccc(Cl)cc2)cc1 (stereo not given)"
assay_value = "7%"

[[record]]
compound = "COC(=O)C(Oc1cccc(C(F)(F)F)c1)c1ccc(Oc2ccc(C(C)(C)C)cc2)cc1 (stereo not given)"
assay_value = "-5%"

[[record]]
compound = "COC(=O)C(Oc1cccc(C(F)(F)F)c1)c1ccc(Oc2ccc(C#N)cc2)cc1 (stereo not given)"
assay_value = "12%"

[[record]]
compound = "COC(=O)C(Oc1ccc(C2(C)CCCCC2)cc1)c1ccc(Oc2ccc(Cl)cc2)cc1 (stereo not given)"
assay_value = "26%"

[[record]]
compound = "COC(=O)C(Oc1ccc(C2CCCCC2)cc1)c1ccc(Oc2cccc(C(F)(F)F)c2)cc1 (stereo not given)"
assay_value = "8%"

[[record]]
compound = "COC(=O)C(Oc1cccc(C(F)(F)F)c1)c1ccc(Oc2ccc(Cl)cc2)cc1 (stereo not given)"
assay_value = "-6%"

[[record]]
compound = "COC(=O)C(Oc1cc(C(C)(C)C)cc(C(C)(C)C)c1)c1ccc(Oc2ccc(Cl)cc2)cc1 (stereo not given)"
assay_value = "-30%"

[[record]]
compound = "COC(=O)C(Oc1ccc(C23CC4CC(CC(C4)C2)C3)cc1)c1ccc(Oc2ccc(Cl)cc2)cc1 (stereo not given)"
assay_value = "14%"

[[record]]
compound = "COC(=O)C(Oc1ccc(C(C)(C)C)cc1)c1ccc(Oc2ccc(Cl)cc2)cc1 (stereo not given)"
assay_value = "27%"

[[record]]
compound = "COC(=O)C(Oc1ccccc1)c1ccc(Oc2ccc(Cl)cc2)cc1 (stereo not given)"
assay_value = "18%"

[[record]]
compound = "COC(=O)C(Oc1cc(Cl)cc(Cl)c1)c1ccc(Oc2ccc(Cl)cc2)cc1 (stereo not given)"
assay_value = "-11%"

[[record]]
compound = "COC(=O)C(Oc1ccc(F)cc1)c1ccc(Oc2cccc(C(F)(F)F)c2)cc1 (stereo not given)"
assay_value = "4%"

[[record]]
compound = "COC(=O)C(Oc1ccc(C2CCCCC2)cc1)c1ccc(Oc2ccc(Cl)cc2)cc1 (stereo not given)"
assay_value = "20%"

[[record]]
compound = "COC(=O)C(Oc1ccc(F)cc1)c1ccc(Oc2ccc(S(C)(=O)=O)cc2)cc1 (stereo not given)"
assay_value = "-3%"

[[record]]
compound = "COC(=O)C(Oc1ccccc1)c1ccc(Oc2ccccc2)cc1 (stereo not given)"
assay_value = "10%"

[[record]]
compound = "COC(=O)C(Oc1ccc(Cl)cc1)c1ccc(Oc2ccc(C(C)(C)C)cc2)cc1 (stereo not given)"
assay_value = "17%"

